Please provide measured Relative androgen receptor binding affinity for the entries that follow.
Molecular target: Rat Prostate Androgen Receptor (Rattus norvegicus)
Construct: from tissue; host or cells: prostate cytosol (100,000×g supernatant) of gonadectomized male rats
Sequence (P15207 1-902): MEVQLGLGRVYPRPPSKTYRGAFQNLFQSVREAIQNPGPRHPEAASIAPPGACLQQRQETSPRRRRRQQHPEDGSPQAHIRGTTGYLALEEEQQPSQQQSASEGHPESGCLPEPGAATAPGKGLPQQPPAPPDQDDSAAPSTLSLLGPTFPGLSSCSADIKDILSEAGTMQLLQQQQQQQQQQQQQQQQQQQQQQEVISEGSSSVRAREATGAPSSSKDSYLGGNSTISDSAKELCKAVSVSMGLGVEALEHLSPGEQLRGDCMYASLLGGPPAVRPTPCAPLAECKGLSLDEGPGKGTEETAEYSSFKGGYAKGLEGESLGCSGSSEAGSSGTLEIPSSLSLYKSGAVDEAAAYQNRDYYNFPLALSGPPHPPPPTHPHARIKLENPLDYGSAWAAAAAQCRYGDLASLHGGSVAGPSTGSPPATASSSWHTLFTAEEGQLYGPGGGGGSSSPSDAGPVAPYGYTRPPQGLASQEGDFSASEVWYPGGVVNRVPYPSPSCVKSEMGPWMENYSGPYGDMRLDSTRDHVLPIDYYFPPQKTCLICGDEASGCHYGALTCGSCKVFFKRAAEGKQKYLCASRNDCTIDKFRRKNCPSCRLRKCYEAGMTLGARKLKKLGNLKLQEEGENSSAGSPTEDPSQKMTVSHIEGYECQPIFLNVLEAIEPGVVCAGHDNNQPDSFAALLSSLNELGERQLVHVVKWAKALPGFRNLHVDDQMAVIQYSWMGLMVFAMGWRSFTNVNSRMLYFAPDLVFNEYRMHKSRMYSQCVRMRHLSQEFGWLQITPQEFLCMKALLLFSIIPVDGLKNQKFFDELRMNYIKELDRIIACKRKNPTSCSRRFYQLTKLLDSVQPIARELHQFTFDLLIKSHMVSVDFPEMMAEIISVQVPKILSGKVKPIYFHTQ
Assay: Rat Prostate Androgen Receptor Competition Assay
Type: binding
Conditions: Table 3, repeats the values of Table 1
Answer with the value's number alone.

For the molecule CC(C)(O)C(=O)Nc1ccc([N+](=O)[O-])c(C(F)(F)F)c1 [Hydroxyflutamide, reference compound] , the measured Relative androgen receptor binding affinity on Rat Prostate Androgen Receptor (Rattus norvegicus) was 2.6

For the molecule C[C@]12Cc3nonc3C[C@@H]1CC[C@@H]1[C@@H]2CC[C@@]2(C)[C@H]1CC[C@@]21CCCO1 [Compound III-1] , the measured Relative androgen receptor binding affinity on Rat Prostate Androgen Receptor (Rattus norvegicus) was 5.8

For the molecule CCC[C@]1(O)CC[C@H]2[C@@H]3CCC4=CC(=O)CCC4=C3CC[C@@]21C [Compound II-1, 17α-Propylestra-4,9-dien-17β-ol-3-one] , the measured Relative androgen receptor binding affinity on Rat Prostate Androgen Receptor (Rattus norvegicus) was 5.7

For the molecule C#C[C@]1(O)CC[C@H]2[C@@H]3CC[C@H]4Cc5nn(S(C)(=O)=O)cc5C[C@]4(C)[C@H]3CC[C@@]21C [Win 49,596, zanoterone, reference compound] , the measured Relative androgen receptor binding affinity on Rat Prostate Androgen Receptor (Rattus norvegicus) was 2.2
